Recorded kon for the following binders
- tested_system: T1, human FLT3 (human, UniProt P36888 27-541, limits assumed)
- T1 construct: Soluble analyte hFLT3 in SPR; also called hFLT3; huFlt3
- T1 sequence: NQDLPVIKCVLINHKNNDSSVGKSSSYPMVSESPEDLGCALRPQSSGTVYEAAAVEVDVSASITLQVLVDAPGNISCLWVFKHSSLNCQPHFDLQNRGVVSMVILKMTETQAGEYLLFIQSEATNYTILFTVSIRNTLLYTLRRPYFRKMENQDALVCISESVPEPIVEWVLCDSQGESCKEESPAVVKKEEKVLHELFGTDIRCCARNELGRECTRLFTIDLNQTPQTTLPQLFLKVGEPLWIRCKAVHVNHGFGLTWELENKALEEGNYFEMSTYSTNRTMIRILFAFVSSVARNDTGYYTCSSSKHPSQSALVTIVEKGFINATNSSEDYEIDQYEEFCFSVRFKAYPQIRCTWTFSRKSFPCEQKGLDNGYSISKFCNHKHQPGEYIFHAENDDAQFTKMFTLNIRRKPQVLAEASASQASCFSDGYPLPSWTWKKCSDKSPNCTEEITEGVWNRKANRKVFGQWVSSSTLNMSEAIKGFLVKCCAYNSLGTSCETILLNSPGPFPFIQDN
- assay_procedure: SPR Biacore T200, 37C; scFv format
Quick note: give the figure in M⁻¹ s⁻¹, leave out the unit.

P4C7 (scFv format) (scFv, not shown: a dimerising Fc or GST; small tags and cut ends) scFv: QVQLVQSGAEVKKPGSSVKVSCKASGGTFSSYTISWVRQAPGQGLEWMGGIIPAFGIANYAQKFQGRVTITADKSTSTAYMELSSLRSEDTAVYYCAKGGSYSLDYFDIWGQGTLVTVSSGGGGSGGGGSGGGGSEIVLTQSPGTLSLSPGERATLSCRASQYVSASLLAWYQQKPGQAPRLLIYGASTRATGIPDRFSGSGSGTDFTLTISRLEPEDFAVYYCQQYARSSTFGQGTKVEIK :: 121000

Any idea what its kon is? The binder is P5A3 (scFv format) (scFv, not shown: a dimerising Fc or GST; small tags and cut ends) scFv: QVQLVQSGAEVKKPGSSVKVSCKASGGTFSSYYIGWVRQAPGQGLEWMGGIIPWFGTANYAQKFQGRVTITADKSTNTAYMELSSLRSEDTAVYYCAADHHDSPSGYTSGGFDVWGQGTLVTVSSGGGGSGGGGSGGGGSQSALTQPASVSGSPGQSITISCTGTSSDVGGYNYVSWYQQHPGKAPKLMIYEVSKRPSGVPDRFSGSKSGNTASLTVSGLQAEDEADYYCSSYAGSNTVVFGGGTKLTVL
81000

Record: P7H3 (scFv format) (scFv, not shown: a dimerising Fc or GST; small tags and cut ends) scFv: EVQLLESGGGLVQPGGSLRLSCAASGFTFSSYAMHWVRQAPGKGLEWVSAISGSGGSTYYADSVKGRFTISRDNSKNTLYLQMNSLRAEDTAVYYCARGTRWWWGDAFDHWGQGTLVTVSSGGGGSGGGGSGGGGSQSVLTQPPSVSVAPGKTARITCGGNNIGSKSVHWYQQKPGQAPVLVIYYDSDRPSGIPERFSGSNSGNTATLTISRVEAGDEADYYCQVWDSSTAWVFGGGTKLTVL
205000
